Measured activity change, negative = inhibition accompanies every entry in the list below.
biological target: 3-hydroxyacyl-CoA dehydrogenase type-2 (Homo sapiens) (UniProt Q99714); test: qHTS Assay for Inhibitors of HSD17B4, hydroxysteroid (17-beta) dehydrogenase 4; details: recombinant HSD17B10, NADH fluorescence kinetic; series mostly up to 57.1 µM; on activity change, negative = inhibition: on the % scale 0 is the no-effect control and ±100 the full control effect
The campaign covered roughly 75,000 compounds. About 5,700 (7.6%) were called active. Another 7% or so got no clear call; they are omitted. Only a selection was taken, and actives are over-represented in it overall.

These solved cases illustrate the format of a correct answer.
>>> reading("CN(C)CCSS(=O)(=O)O")
"8.4% [at 11.4 µM] (inactive)"
>>> reading("CO/N=C\\[C@@H](C)[C@H](OCc1ccccc1)C(C)C")
"-1.19% [at 11.4 µM] (inactive)"
>>> reading("O=C(O)c1cccc(S(=O)(=O)NCCO)c1")
"10% [at 11.4 µM] (inactive)"
>>> reading("CC1(C)OC(C(O)(c2ccccc2)c2ccccc2)C(C(O)(c2ccccc2)c2ccccc2)O1 (stereo not drawn)")
"1.95% [at 11.4 µM] (inactive)"
>>> reading("CC(=O)OCC1OC(C#Cc2ccccc2Cl)C=CC1OC(C)=O (stereo not drawn)")
"-6.58% [at 11.4 µM] (inactive)"
>>> reading("COC(=O)[C@@H]1CC[C@H](C)[C@@H](c2ccc(C)cc2)N1C(=O)c1ccc(/C=N\\OC[C@@H](O)COCc2ccco2)cc1")
"-1.91% [at 11.4 µM] (inactive)"
>>> reading("CN(C)CCCn1c2ccccc2c2cnccc21")
"7.17% [at 11.4 µM] (inactive)"
>>> reading("C[C@H]1CC[C@H](C(=O)O)N[C@@H]1c1ccc(C#Cc2ccccc2)cc1")
"-1.28% [at 11.4 µM] (inactive)"
>>> reading("C[N+]1(CCN=C=NC2CCCCC2)CCOCC1")
"-0.294% [at 11.4 µM] (inactive)"
>>> reading("c1ccc(CSCCc2ccncc2)cc1")
"1.7% [at 11.4 µM] (inactive)"

Request: Could you tell me which activity change, negative = inhibition is on file for Oc1c(CN2CCOCC2)ccc(CN2CCOCC2)c1O ?
Response: -11.5% [at 11.4 µM] (inactive)

Request: Could you tell me which activity change, negative = inhibition is on file for Oc1ccccc1CNCc1ccccc1O ?
Response: -0.327% [at 11.4 µM] (inactive)

Request: Could you tell me which activity change, negative = inhibition is on file for C=CCOC(=O)C(C(C)=O)C(NC(=O)OC)c1ccccc1 (stereo not drawn) ?
Response: 10.6% [at 11.4 µM] (inactive)

Request: Could you tell me which activity change, negative = inhibition is on file for CCOC(=O)[C@]1(C(/C=C/c2ccco2)NC(=O)OC)CCCC1=O (stereo partly drawn) ?
Response: -2.18% [at 11.4 µM] (inactive)

Request: Could you tell me which activity change, negative = inhibition is on file for Cn1c(=O)n2n(c1=O)[C@H]1[C@H](O)[C@H]3O[C@H]3C(=O)[C@H]1CC2 ?
Response: -7.54% [at 11.4 µM] (inactive)

Request: Could you tell me which activity change, negative = inhibition is on file for CCOC(=O)N/N=C1/C[C@@H](O)[C@@H](O)[C@@H]2[C@@H]3C(=O)N(CC)C(=O)[C@H]3CC[C@H]12 ?
Response: 7.25% [at 11.4 µM] (inactive)

Request: Could you tell me which activity change, negative = inhibition is on file for COC(=O)NC(c1ccccc1)[C@]1(C(C)=O)CCCC1=O (stereo partly drawn) ?
Response: 3.19% [at 11.4 µM] (inactive)

Request: Could you tell me which activity change, negative = inhibition is on file for CC(C)(C)NCC[C@@H](O)c1cc(C(F)(F)F)nc2c(C(F)(F)F)cccc12 ?
Response: 3.93% [at 11.4 µM] (inactive)

---

molecular target: 3-hydroxyacyl-CoA dehydrogenase type-2 (Homo sapiens) (UniProt Q99714); assay: qHTS Assay for Inhibitors of HSD17B4, hydroxysteroid (17-beta) dehydrogenase 4; details: recombinant HSD17B10, NADH fluorescence kinetic; series mostly up to 57.1 µM; further: potency means the concentration at half of the fitted maximal effect;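 further: the protocol describes HADH2 (HSD17B10) and not the HSD17B4 of the title; nearly all actives have a fitted effect of over 70% in size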
The whole screen tested about 75,000 compounds, of which about 5,700 (7.6%) were called active. Another 7% or so got no clear call; they are omitted. This excerpt belongs to a sample that is enriched for actives.
metric.name: Potency

>>> reading("COc1cccc2cc(C(=O)N(C)C)c(=O)oc12")
"inactive"
>>> reading("C=CCc1cccc2cc(C(=O)N3CCN(C(=O)OCC)CC3)c(=O)oc12")
"25.1 µM (active)"
>>> reading("CCOC(=O)c1cc2ccccc2nc1C")
"inactive"
>>> reading("CSCC[C@H](NC(=O)NCCc1ccc(F)cc1)C(=O)O")
"inactive"
>>> reading("CCOC(=O)N1CCN(C(=O)c2n[nH]c(=O)c3ccccc23)CC1")
"inactive"

Request: Reported Potency for 3-hydroxyacyl-CoA dehydrogenase type-2 (Homo sapiens) (UniProt Q99714), given COc1c(C(=O)N2CCCC2)ccc2ccccc12 ?
Response: inactive

---

molecular target: 3-hydroxyacyl-CoA dehydrogenase type-2 (Homo sapiens) (UniProt Q99714); test: qHTS Assay for Inhibitors of HSD17B4, hydroxysteroid (17-beta) dehydrogenase 4; conditions: recombinant HSD17B10, NADH fluorescence kinetic; series mostly up to 57.1 µM;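 further: the protocol describes HADH2 (HSD17B10) and not the HSD17B4 of the title; nearly all actives have a fitted effect of over 70% in size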
The whole screen tested about 75,000 compounds, of which about 5,700 (7.6%) were called active. Roughly 7% stayed inconclusive and do not appear here. The call rests on the fitted dose curve; in most records, active means well fitted inhibition curve with a large enough effect; inconclusive means small, poorly fitted or top-dose-only effect; inactive means no such curve, though single readings can be large or run the other way. The entries come from a sample that favours actives as a whole.
# valid calls are T (active), F (inactive); nothing else

Previously resolved entries follow.
>>> category_label("COc1ccccc1N1CCN(C(=O)CSc2nnc(-c3ccoc3C)o2)CC1")
"F"
>>> category_label("Cc1noc(C)c1S(=O)(=O)N(CC(=O)NCc1ccc(Cl)cc1)c1ccc2c(c1)OCO2")
"F"
>>> category_label("Cc1ccc(F)cc1NC(=O)c1ccc2c(c1)OCO2")
"F"

Request: Hello, I am checking results. What call was entered for O=C1CC2(CCCCC2)Oc2ccc(OCC(=O)N3CCOCC3)cc21 ?
Response: T

---

molecular target: 3-hydroxyacyl-CoA dehydrogenase type-2 (Homo sapiens) (UniProt Q99714); test: qHTS Assay for Inhibitors of HSD17B4, hydroxysteroid (17-beta) dehydrogenase 4; details: recombinant HSD17B10, NADH fluorescence kinetic; series mostly up to 57.1 µM;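 further: the protocol describes HADH2 (HSD17B10) and not the HSD17B4 of the title; nearly all actives have a fitted effect of over 70% in size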
About 5,700 (7.6%) of roughly 75,000 compounds were called active. About 7% were inconclusive and are not listed. Calls follow the shape of the dose curve; as a rule, active = well fitted inhibition curve with a large enough effect; inconclusive = small, poorly fitted or top-dose-only effect; inactive = no such curve, though single readings can be large or run the other way. For the sample, actives were picked, then their nearest neighbours and some compounds at random.
# valid calls are active, inactive; nothing else

Previously resolved entries follow.
>>> category_label("CCOc1ccc(NC(=O)Nc2cc(C)ccc2OC)cc1")
"inactive"
>>> category_label("CC1(C)CN=C(N2CCN(c3ncnc4sc5c(c34)CCCC5)CC2)S1")
"inactive"
>>> category_label("Cn1c(CCN2CCCCCC2)nc2cc(NC(=O)Nc3ccccc3)ccc21")
"active"

Request: Hello, I am checking results. What call was entered for COc1cccc(-c2nc(S(=O)(=O)c3ccccc3)c(N3CCOCC3)o2)c1 ?
Response: inactive

Request: Hello, I am checking results. What call was entered for Cc1ccc2c(c1)c1ncn(CCC3=CCCCC3)c(=O)c1n2C ?
Response: active

Request: Hello, I am checking results. What call was entered for O=C(CCN1C(=O)c2ccncc2C1=O)Nc1ccc2c(c1)OCCO2 ?
Response: inactive

Request: Hello, I am checking results. What call was entered for Cn1c(=O)n(C)c(=O)n(CC(=O)N2CCCCC2)c1=O ?
Response: inactive

Request: Hello, I am checking results. What call was entered for COc1ccc2c(CC(=O)Nc3nnc(C4CC4)s3)coc2c1 ?
Response: active

Request: Hello, I am checking results. What call was entered for COc1ccc(N)c(C)c1 ?
Response: inactive

Request: Hello, I am checking results. What call was entered for COc1ccc(OCCCC(=O)Nc2nnc(C3CCCO3)s2)cc1 (stereo not drawn) ?
Response: inactive

Request: Hello, I am checking results. What call was entered for CCCCN(CC)CCCNC(=O)CS(=O)(=O)Cc1nc(-c2cccc(OC)c2)oc1C ?
Response: inactive

Request: Hello, I am checking results. What call was entered for COc1ccc(NC(=O)Nc2cccc3cccnc23)cc1 ?
Response: inactive

Request: Hello, I am checking results. What call was entered for O=C(NCc1ccc2c(c1)OCO2)c1ccc2c(c1)C(=O)N(CC1CCCO1)C2=O (stereo not drawn) ?
Response: inactive

---

target: 3-hydroxyacyl-CoA dehydrogenase type-2 (Homo sapiens) (UniProt Q99714); test: qHTS Assay for Inhibitors of HSD17B4, hydroxysteroid (17-beta) dehydrogenase 4; details: recombinant HSD17B10, NADH fluorescence kinetic; series mostly up to 57.1 µM; further: potency means the concentration at half of the fitted maximal effect;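 further: the protocol describes HADH2 (HSD17B10) and not the HSD17B4 of the title; nearly all actives have a fitted effect of over 70% in size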
The campaign covered roughly 75,000 compounds. About 5,700 (7.6%) were called active. Roughly 7% stayed inconclusive and do not appear here. This is one part of a sample in which actives are shown more often than they occur.
metric.name: Potency

These solved cases illustrate the format of a correct answer.
>>> reading("CCCN(CCC)CCNC(=O)c1cc2c(C)nc3ccccc3c2o1")
"inactive"
>>> reading("O=C1c2cccc3cccc(c23)N1CN1CCN(c2ccccn2)CC1")
"inactive"
>>> reading("CC(C)[C@H]1CC[C@@H](C)C[C@H]1O")
"inactive"
>>> reading("Cc1nc2ccccc2c2oc(C(=O)NCCCN3CCC(C)CC3)cc12")
"inactive"
>>> reading("Cc1nc2ccccc2c2oc(C(=O)NCC3CCCO3)cc12 (stereo unspecified)")
"31.6 µM (active)"

Request: Could you tell me which Potency is on file for COCC(=O)N1CCC2(CCCN(c3ccccc3)C2)CC1 ?
Response: inactive
